system: var2CSA (PfEMP1) (Plasmodium falciparum CS2); experiment: cell binding, microfluidic partitioning and qPCR; conditions: apparent Kd on CS2 infected RBCs; no enrichment on DC-J; 2'-fluoro pyrimidines; TBB: 20 mM HEPES pH 7.4, 150 mM NaCl, 2 mM CaCl2; room temperature (cell binding); BLI in TBB
endpoint: Kd (nM)

1. GGGAGCUCAGAAUAAACGCUCAACAACGGAUCACACGCAAGCGAAUCUAUGUCCUUCGGGUCUAAGGGUCGCUUUCGACAUGAGGCCCGGAUCCGGC [8.1-1] | 14

The values you see were collected from paper PMC4486934.
